Recorded values, source patent US8476306B2.

Quick record of log10 of Ki values for plasmin (Homo sapiens (Human)).
Counter-ions that a name gives are not always drawn.
Observed Property: log10 of Ki (log10 of the value in µM)

Compound	log10 of Ki
N=C(N)c1ccc(CNC(=O)[C@H](CCCCNC(=O)COCC(=O)NCCOCCOCCOCCOCCOCCOCCOCCN)NC(=O)[C@@H](CO)NS(=O)(=O)Cc2ccccc2)cc1 [Example 10, TFA]	-0.28
N=C(N)c1ccc(CNC(=O)CNC(=O)[C@@H](CO)NS(=O)(=O)Cc2ccc(CN)cc2)cc1 [R=4-(NH2—CH2), X=CH, R1=H, TFA]	0.87
N=C(N)c1ccc(CNC(=O)[C@H](CCCN=C(N)N)NC(=O)[C@@H](CO)NS(=O)(=O)Cc2ccccc2)cc1 [X=Arg, TFA]	-0.70
N=C(N)c1ccc(CNC(=O)[C@H](CO)NC(=O)[C@@H](CO)NS(=O)(=O)Cc2ccc(C(=O)O)cc2)cc1	0.79
N=C(N)c1ccc(CNC(=O)CNC(=O)[C@@H](CO)NS(=O)(=O)Cc2ccc(C(=O)O)cc2)cc1	1.54
CC(OCc1ccccc1)[C@H](NC(=O)[C@@H](CO)NS(=O)(=O)Cc1ccccc1)C(=O)NCc1ccc(C(=N)N)cc1 (stereo partly drawn)	0.04
